Form field: TGI (one value per entry).
Test system: NCI/ADR-RES ovarian
Protocol Text: NCI tumour cell line growth inhibition, 48 h
Write the value in µM as a bare number.

Use these answered entries as a reference point.
INSERT INTO assay_data (compound, measured_metric, recorded_number) VALUES
  ('COc1ccc2c(c1)N=C1CSC(c3ccccc3Cl)N1C2 (stereo not given)', 'TGI', 72.3),
  ('O=C(Nc1ccc(Cl)cc1)c1cc(-c2ccc(Cl)cc2)c2sc(=O)[nH]c2n1', 'TGI', 7.61),
  ('O=C(O)c1cc2cc(OCc3ccccc3)c(OCc3ccccc3)cc2[nH]1', 'TGI', 49.1);

Then there is this compound:
Find the recorded TGI belonging to C#CC(F)(F)[C@]1(O)CC[C@H]2[C@@H]3CCC4=CC(=O)CCC4=C3[C@@H](c3ccc(C(C)=O)cc3)C[C@@]21C and report it.
59

* * *

System: MCF7 breast
Protocol Text: NCI tumour cell line growth inhibition, 48 h
Measured Metric: TGI

Find the recorded TGI belonging to COP(=O)(OC)C(Cc1c[nH]c2ccccc12)NC(=O)OCc1ccccc1 (stereo not drawn) and report it.
> 100 µM

Find the recorded TGI belonging to Cc1cn(CC2=NCC(C)(C)N2)c(=O)[nH]c1=O and report it.
> 100 µM

Find the recorded TGI belonging to OC1(c2cc3ccccc3s2)CCCCC1 and report it.
> 100 µM

* * *

System: SR leukemia
Protocol Text: NCI tumour cell line growth inhibition, 48 h; in the data active means GI50 below about 0.43 µM; inactive means the rest
Outcome field: choose from y for active, n for inactive

Before answering, review these 5 worked examples.
INSERT INTO measurements (molecule, test_system, group) VALUES
  ('O=C(Nc1ccccc1O)c1ccc(Oc2cccc(C(=O)Nc3ccccc3O)c2)cc1', 'SR leukemia', 'n'),
  ('Cn1cc(-c2cnc3ccc4ccc(CS(=O)(=O)NCc5ccccn5)cc4c(=O)c3c2)cn1', 'SR leukemia', 'n'),
  ('COc1ccc(-c2ccc(-c3ccc(-c4ccc(C(=N)N)cc4)s3)s2)cc1OC', 'SR leukemia', 'n'),
  ('NS(=O)(=O)c1cccc(N=Cc2c(O)[nH]c3ccccc23)c1', 'SR leukemia', 'n'),
  ('O=C(Cc1cccc(OC(F)(F)F)c1)Nc1ccc(CCCCc2nnc(NC(=O)Cc3ccccn3)s2)nn1', 'SR leukemia', 'n');

Write down the call the test reported for this molecule. Item: COc1ccc(C(=O)c2cc3c(OC)c(OC)c(OC)cc3[nH]2)cc1
y

Write down the call the test reported for this molecule. Item: CO[C@@H]1/C=C(C)/C=C/[C@@H](C)/C=C(\C)C(=O)OC(/C(C)=C/C=C(\C)CNC(=O)[C@H](CO)NC=O)[C@@H](C)/C=C/C=C/[C@H](OC)CC/C=C(C)/C=C/C1 (some centres undefined)
y

Write down the call the test reported for this molecule. Item: COc1ccc2c(c1)C(=O)/C(=C/c1ncc([N+](=O)[O-])n1C)O2
y

Write down the call the test reported for this molecule. Item: O=C(O)c1ccc(N/C=C2\C(=O)c3ccccc3OC2O)cc1O (centres undefined)
n

* * *

Test system: M14 melanoma
Protocol Text: NCI tumour cell line growth inhibition, 48 h
Measured Metric: TGI (µM)
Write the value in µM as a bare number.

Use these answered entries as a reference point.
INSERT INTO measurements (record_smiles, recorded_number) VALUES
  ('CN1CCN(Cc2ccc(NC(=O)c3ccc(C#Cc4c(N)ncc5ccc(F)cc45)cc3)cc2C(F)(F)F)CC1', 1.71),
  ('Cc1c2c[n+](C(C)C)ccc2c(C)c2c1[nH]c1ccccc12', 17),
  ('O=C(N/N=C/c1ccccc1O)C(=O)Nc1ccc(F)cc1', 40.4);

Then there is this molecule:
Find the recorded TGI belonging to Nc1ccccc1N/C=C\C(=O)C(Cl)(Cl)Cl and report it.
31.8

* * *

Tested on: MDA-MB-231 breast
Protocol Text: NCI tumour cell line growth inhibition, 48 h
Measured Metric: TGI

INSERT INTO assay_data (molecule, result) VALUES
  ('Cc1cc(-c2nc3ccccc3s2)ccc1NC(=O)[C@H](C)N', '32.6 µM'),
  ('O=C(O)c1cc(N=Cc2ccccc2O)cc(C(=O)O)c1', '> 100 µM'),
  ('COc1cc(-c2nc3sc4c(c3c(=O)[nH]2)CCCCCC4)cc(OC)c1OC', '29.5 µM'),
  ('COC(=O)n1c(=O)n(-c2ccccc2)c(=O)n1C(=O)OC', '> 100 µM'),
  ('COc1ccc(N=N/C(=N/NC(=O)c2ccccc2)c2ccc(N(CCC#N)CCC#N)cc2C)cc1', '> 100 µM');

Then there is this molecule:
Find the recorded TGI belonging to Cc1ccc(C(C2C(=O)N(C)C(=O)N(C)C2=O)C(F)(F)C(=O)N(C)C)cc1 (stereo unspecified) and report it.
> 100 µM

* * *

Form field: TGI (one value per entry).
Tested on: KM12 colon
Protocol Text: NCI tumour cell line growth inhibition, 48 h

INSERT INTO measurements (record_smiles, measured_metric, result) VALUES
  ('COc1ccc(-c2c(N)n(-c3cccc(C(=O)O)c3)c(=O)c3cc([N+](=O)[O-])ccc23)cc1', 'TGI', '> 100 µM'),
  ('Cc1c(C)[n+](=O)c(C)c(C)n1[O-]', 'TGI', '> 100 µM'),
  ('Oc1ccc(SCc2cc(O)c(O)c(O)c2)cc1', 'TGI', '42.6 µM'),
  ('O=C1c2c(n(Cc3ccccc3)c(=O)n2Cc2ccccc2)C(=O)N1Cc1ccccc1', 'TGI', '> 100 µM'),
  ('C=C1C(=O)O[C@H]2[C@H]1CC/C(COC(=O)CSCC(=O)OC/C1=C/CC[C@@]3(C)O[C@H]3[C@H]3OC(=O)C(=C)[C@@H]3CC1)=C\CC[C@@]1(C)O[C@@H]21', 'TGI', '8.75 µM');

Then there is this compound:
Find the recorded TGI belonging to COc1cccc(N(CN2CC=CC2=O)C(C)=O)c1 and report it.
> 100 µM

* * *

System: DMS 114 small cell lung
Protocol Text: NCI tumour cell line growth inhibition, 48 h
Measured Metric: TGI (µM)
Write the value in µM as a bare number.

INSERT INTO assay_data (molecule, measured_metric, recorded_number) VALUES
  ('COc1cc2c[n+](C)c3c4ccccc4ccc3c2cc1OC (tested in a mixture with another compound)', 'TGI', 14.6),
  ('CCN(CCCl)CCCNc1c2ccccc2nc2ccc(OC)cc12', 'TGI', 1.76),
  ('Nc1c(C(=O)Nc2ccccc2)[n+]([O-])c2ccccc2[n+]1[O-]', 'TGI', 26.8);

Then there is this molecule:
Find the recorded TGI belonging to COc1cc(/C=C2\CCC(CN(C)C)C2=O)ccc1OC(=O)c1ccccc1 (stereo not given) and report it.
40.9

* * *

Tested on: HCC-2998 colon
Protocol Text: NCI tumour cell line growth inhibition, 48 h
TGI of 20 µM or higher: yes (1). Under 20 µM: no (0).

INSERT INTO measurements (compound, group) VALUES
  ('COc1cc(/C=C2\CN(C)C/C(=C\c3cc(CN4CCCCC4)c(O)c(OC)c3)C2=O)cc(CN2CCCCC2)c1O', 'no (0)'),
  ('COc1ccc2c(c1)n([O-])c(C#N)c(N1CCN(c3ccc([N+](=O)[O-])cc3)CC1)[n+]2=O', 'yes (1)'),
  ('O=C1/C(=C/c2ccccc2[N+](=O)[O-])N=C(c2ccccc2)N1C1Nc2cc3c(cc2S1)NC(N1C(=O)/C(=C/c2ccccc2[N+](=O)[O-])N=C1c1ccccc1)S3 (centres undefined)', 'yes (1)');

Does CC#CC1/C(=C\C(=O)OC)CCCC1O (centres undefined) have a reported TGI of at least 20 µM?
yes (1)

Does c1ccc2c(c1)nc(NC1CCCC1)c1[nH]c(C3CCCC3)nc12 have a reported TGI of at least 20 µM?
no (0)

Does C=CC(=O)N[C@H]1CCOC[C@H]1Nc1ncc2cc(-c3c(Cl)c(OC)cc(OC)c3Cl)ccc2n1 have a reported TGI of at least 20 µM?
yes (1)

* * *

Test system: LOX IMVI melanoma
Protocol Text: NCI tumour cell line growth inhibition, 48 h
Measured Metric: TGI

INSERT INTO assay_data (compound, result) VALUES
  ('O=C(CCl)N1c2ccccc2Sc2ccc3ccccc3c21', '0.299 µM'),
  ('Cc1c(C)[n+](=O)c(C)c(C)n1[O-]', '> 100 µM'),
  ('O=C1Nc2cc([N+](=O)[O-])ccc2NC1/C(=N\Nc1ccccc1)C(O)c1cccc([N+](=O)[O-])c1 (stereo not given)', '> 100 µM'),
  ('Cc1cc(NS(=O)(=O)c2ccc(NC(=O)c3cccc4c(Nc5ccc(S(=O)(=O)N=C(N)N)cc5)c5ccccc5nc34)cc2)no1', '> 100 µM'),
  ('O=C1/C(=C/c2ccccc2[N+](=O)[O-])N=C(c2ccccc2)N1C1Nc2cc3c(cc2S1)NC(N1C(=O)/C(=C/c2ccccc2[N+](=O)[O-])N=C1c1ccccc1)S3 (stereo not given)', '> 100 µM'),
  ('Cc1nc2ccc(S(=O)(=O)O)cc2c(=O)n1-c1ccc(C(=O)NN2C(=O)C(Cl)C2c2ccccc2O)cc1 (stereo not given)', '> 100 µM'),
  ('CCSC1=C(C)N(C=NC(C)(C)C)CC1', '> 100 µM'),
  ('N#CCc1ncc(-c2ccc(C(F)(F)F)cc2)c(NC2CCCCCC2)n1', '> 10 µM');

Find the recorded TGI belonging to C1OC1CO[C@@H]1CO[C@H]2[C@@H]1OC[C@H]2OCC1CO1 (stereo not given in full) and report it.
> 100 µM

Find the recorded TGI belonging to COc1ccc2c(c1)N=C1CSC(c3ccccc3Cl)N1C2 (stereo not given) and report it.
23 µM
